tested on: UACC-257 melanoma; assay: NCI tumour cell line growth inhibition, 48 h
Record TRUE whenever TGI is at 8 µM or higher; record FALSE when lower.

Worked set:
{"compound": "COc1ccc(C(=O)/C=C/c2ccc(OCC(=N)N)cc2)cc1", "cat": "TRUE"}
{"compound": "COc1ccc2c(c1OC(C)=O)C1=CC(=O)CCC13CCNC3C2 (stereo unspecified)", "cat": "TRUE"}
{"compound": "Cc1ccc(S(=O)(=O)N2CCc3ccc(O)c4c3C2Cc2ccc3c(c2-4)OCO3)cc1 (stereo unspecified)", "cat": "TRUE"}
{"compound": "CCCC(=O)NC(Nc1ccc(S(=O)(=O)Nc2ccc(OC)nn2)cc1)(C(F)(F)F)C(F)(F)F", "cat": "TRUE"}
{"compound": "COc1cnc2c(c1)C(=O)c1c-2n(CCCN2CCNCC2)c(=O)c2cc([N+](=O)[O-])ccc12", "cat": "TRUE"}

API: above_or_equal(metric=TGI, cutoff=8 µM) for item C=C(CCCO)[C@@H]1CC[C@@](C)(O)[C@H]1C
TRUE

Is the recorded value of TGI equal to or greater than 8 µM for this compound? O=C1c2ccccc2C(=O)c2c(NCCCN3CCOCC3)ccc(NCCCN3CCOCC3)c21
TRUE

Does the reported TGI for S=C(N1CCN(c2ccccc2)CC1)N1CCN(c2ccccc2)CC1 fall at or above the 8 µM mark?
TRUE

Say whether N#Cc1c(N2CCN(c3ccc([N+](=O)[O-])cc3)CC2)[n+](=O)c2ccccc2n1[O-] shows TGI of 8 µM or more.
TRUE

# check: TGI of CCn1ccc(NS(=O)(=O)c2ccc(N)cc2)nc1=O is greater than or equal to 8 µM
TRUE

API: above_or_equal(metric=TGI, cutoff=8 µM) for item COC(=O)C(=O)C(C(=O)C(=O)Nc1cc(C)ccc1C)c1nc2ccc(C(=O)c3ccccc3)cc2[nH]c1=O (stereo unspecified)
TRUE

Given [O-]c1c2c(nn1-c1ccc(Cl)cc1)c1ccccc1c[n+]2Cc1ccccc1 , state whether its TGI is at least 8 µM.
TRUE

Given Fc1ccc(Nc2nc3ccccc3c3occc23)cc1 , state whether its TGI is at least 8 µM.
TRUE

Kindly determine if TGI recorded for COC(=O)C(/C(=N\NC(N)=S)C(=O)Nc1ccccc1[N+](=O)[O-])c1cnc2ccccc2n1 (stereo unspecified) is above or exactly 8 µM.
TRUE

Does the compound CCOC(=O)C(OP(=O)(OCC)OCC)C(F)(F)F (stereo unspecified) have recorded TGI that is 8 µM or more?
TRUE

Identify whether the reported TGI of the following compound is 8 µM or greater: C=CCc1c(O)c(C(=O)/C=C/c2ccccc2)c(OC)c2ccoc12
FALSE

###

# TGI per entry
tested on: UO-31 renal; assay: NCI tumour cell line growth inhibition, 48 h

Previously resolved entries follow.
{"compound": "COc1ccc(N(C)c2nc(Cl)nc3cnn(C)c23)cc1", "TGI": "> 95.5 µM"}
{"compound": "O=C1CC2SC(COCc3ccccc3)(CCN2Cc2ccccc2)C1 (stereo not drawn)", "TGI": "> 100 µM"}
{"compound": "CCOC(=O)c1cccnc1C(OC(C)=O)OC(C)=O", "TGI": "> 100 µM"}
{"compound": "Cc1nnc(Sc2nc(C#N)c(C#N)nc2Sc2nnc(C)s2)s1", "TGI": "23.9 µM"}
{"compound": "CSCCC(C(=O)O)N(CC1(O)OCC(O)C(O)C1O)N=O (stereo not drawn)", "TGI": "> 100 µM"}
{"compound": "CCn1ccc(NS(=O)(=O)c2ccc(N)cc2)nc1=O", "TGI": "> 100 µM"}
{"compound": "NC(Cc1ccc(B(O)O)cc1)C(=O)NC(CO)CO (stereo not drawn)", "TGI": "> 100 µM"}
{"compound": "CN(C(=O)c1ccc(OCCCC(=O)O)c(Cl)c1Cl)C1CCCC1", "TGI": "> 100 µM"}

So, CN(C)c1ccc(/C=C/c2cc(-c3ccccc3)[n+](C)n2-c2ccccc2)cc1 ? Its TGI was 6.66 µM

Form field TGI, entry C/C(=N\NC(=O)CC(=O)N(C(=O)c1ccc(Cl)cc1)c1ccc(C)cc1)c1ccccc1O : > 100 µM

###

tested on: SF-295 CNS; assay: NCI tumour cell line growth inhibition, 48 h
# TGI per record follows

Examples with answers:
{"compound": "CCCN(CCC)C1=Nc2ccccc2-n2cnnc2C1", "TGI": "> 100 µM"}
{"compound": "Cc1ccc(S(=O)(=O)N2CCc3ccc(O)c4c3C2Cc2ccc3c(c2-4)OCO3)cc1 (centres undefined)", "TGI": "12 µM"}
{"compound": "COC(=O)C1=NN2c3ccccc3CN([C@@H](C)c3ccccc3)C(=O)[C@@H]2[C@H]1c1ccccc1", "TGI": "> 100 µM"}
{"compound": "COC(=O)/C(C#N)=C(\\N)c1c(C)c2ccccc2oc1=N", "TGI": "> 100 µM"}
{"compound": "C/C(Cc1ccc2c(c1)OCO2)=N\\NC(=O)C(C)Sc1nnc(SC(C)C(=O)N/N=C(\\C)Cc2ccc3c(c2)OCO3)s1 (centres undefined)", "TGI": "> 100 µM"}

Reported TGI ( COc1cc(/C=C2\C[C@H]3[C@@H]4CC=C5C[C@@H](OC(C)=O)CC[C@]5(C)[C@H]4CC[C@]3(C)[C@H]2OC(C)=O)ccc1OCCN1CCCC1 ) = 25.4 µM

Lab note: measured TGI of CCn1ccc(NS(=O)(=O)c2ccc(N)cc2)nc1=O was > 100 µM

// O=Nc1c(O)cc(Nc2cccnc2)c2ccccc12 : TGI value = > 100 µM

Measured TGI of O=c1cc(-c2ccccc2)[nH]c2cc(Cl)ccc12 : 2.07 µM

###

system: SK-MEL-28 melanoma; test: NCI tumour cell line growth inhibition, 48 h; in the data active = GI50 below about 0.43 µM; inactive = the rest
Can you answer with just one of these options? active, inactive

Some entries whose results are on file:
{"compound": "COc1cccc(Nc2nccc(-c3cnn4ncccc34)n2)c1", "target_of_assay": "SK-MEL-28 melanoma", "cat": "active"}
{"compound": "[CH3][Sn]([CH3])([CH3])[O][N+](=O)[O-]", "target_of_assay": "SK-MEL-28 melanoma", "cat": "inactive"}

Now look at this one.
What did this assay record as the result for CN(C)CCOC(=O)Nc1nc2ccc(Sc3ccccc3)cc2[nH]1 ?
inactive

###

system: UACC-257 melanoma; assay: NCI tumour cell line growth inhibition, 48 h
experimental_readout: log10(TGI) (log10 of the value in µM)
Heads up: the numbers are on a log10 scale; they represent TGI in µM.

Worked cases, answers included:
{"structure_as_smiles": "COc1cc(/C=C/C(=O)c2c(C)nc3ccccc3c2C)ccc1OCCCN1CCN(C(=O)c2ccco2)CC1", "target_of_assay": "UACC-257 melanoma", "experimental_readout": "log10(TGI)", "assay_result": 1.21}
{"structure_as_smiles": "CN(C)c1ccc(/C=C/c2cc(-c3ccccc3)[n+](C)n2-c2ccccc2)cc1", "target_of_assay": "UACC-257 melanoma", "experimental_readout": "log10(TGI)", "assay_result": 1.43}
{"structure_as_smiles": "O=[N+]([O-])c1ccc(Sc2ccncn2)c([N+](=O)[O-])c1", "target_of_assay": "UACC-257 melanoma", "experimental_readout": "log10(TGI)", "assay_result": 0.97}
{"structure_as_smiles": "O=C1NC(=S)NC(=O)C1=C/C=C/c1ccc([N+](=O)[O-])cc1", "target_of_assay": "UACC-257 melanoma", "experimental_readout": "log10(TGI)", "assay_result": 1.49}

Would you kindly look at the next entry?
Per the record, CCC[CH2][Pb]([Cl])([CH2]CCC)[CH2]CCC has log10(TGI) of -0.80

###

system: SK-OV-3 ovarian; test: NCI tumour cell line growth inhibition, 48 h
Listed next: entries and their corresponding TGI.

{"compound": "COc1ccc(/C=C2\\c3cc(OC)c(OC)c(OC)c3CC[C@@H]2O)cc1F", "TGI": "61.1 µM"}
{"compound": "O=C1NC(c2cccc(OCc3ccccc3)c2)Nc2ccccc21 (configuration not stated)", "TGI": "5.87 µM"}
{"compound": "Cc1csc(NNC(=O)Nc2ccccc2)n1", "TGI": "> 100 µM"}

Entry COC1/C=C/C(C)C(C(C)C(OC)C(C)CCC(=O)C(C)C(CC(=O)O)OC)OC(=O)/C=C/C=C(\C)CC(OC)CC2=CC(=O)O[C@H](C2)C(C)C(OC)CC(OC)/C=C/C(C)C(OC)C1 (some centres not stated) ; TGI = > 4.35 µM

// TGI value for COc1cc(/C=C/C(=O)c2c(C)nc3ccccc3c2C)ccc1OCCCN1CCN(C(=O)c2ccco2)CC1 : 52 µM

Input O=[N+]([O-])c1cc2c([N+](=O)[O-])cccc2o1 . Output TGI: 31.3 µM

The compound listed as CC1CN=C(Nc2ccc(F)c(Cl)c2)S1 (configuration not stated) has a reported TGI of > 100 µM

Recorded TGI (compound c1ccc([P+](c2ccccc2)(c2ccccc2)C2c3ccccc3-c3ccccc32)cc1 ): 4.33 µM

Per the records, this compound ( O=C1/C(=C/c2ccc(Cl)cc2)CSC/C1=C\c1ccc(Cl)cc1 ) has TGI equal to 16.5 µM

// sample C=CCN(N=O)C(=O)NCCCCC(NC(C)=O)C(=O)NCc1ccccc1 (configuration not stated) , its TGI was > 100 µM

Reported TGI of CCN(CC)CCNc1ccc2nc(C)n3c4ccc(O)cc4c(=O)c1c23 : 12.6 µM

Entry COc1ccc(C(=O)/C=C/c2ccc(OCC(=N)N)cc2)cc1 , TGI reported as 25.5 µM

In plain terms, CNC(=O)NS(=O)(=O)c1ccc(C)cc1 has a documented TGI of > 100 µM

The recorded TGI for Cc1cc(Cl)ccc1NC(=O)C(=O)C(C(=O)c1ccccc1)C1OC(=O)c2ccccc21 (configuration not stated) is > 100 µM

For record CCc1cccc(C)c1NC(=S)NC(=O)c1ccccc1C(=O)NC(=S)Nc1c(C)cccc1CC the listed TGI is > 100 µM

The compound listed as Cc1ccc(S(=O)(=O)Nc2ccc(-c3cc(-c4cccc(F)c4)c(C#N)c(N)n3)cc2)cc1 shows TGI equal to 23.3 µM

Entry CCOC(=O)C(=O)Nc1ccccc1C(C)C ; TGI = > 100 µM

Recorded result, COc1ccc(N(C)c2nc(Cl)nc3cnn(C)c23)cc1 , TGI: > 100 µM

Recorded TGI (compound CCN1CCC(O)(c2ccc(O)cc2)C(C(=O)c2ccc(O)cc2)C1 (configuration not stated) ): > 100 µM

Kindly note the recorded TGI for CCN(Cc1ccc(F)cc1)c1ccc(CO)c(OC)c1 , which is > 94.6 µM

Measured TGI, CC1CC[P+](c2ccccc2)(c2ccccc2)CC1 : > 100 µM

For this compound ( O=C1c2ccccc2C(=O)N1CC(CN1C(=O)c2ccccc2C1=O)(C(=O)OCc1ccccc1)C(=O)OCc1ccccc1 ), measured TGI is > 100 µM

The compound S=C=NC1CCC(c2cc3ccccc3s2)(N2CCCCC2)CC1 (configuration not stated) showed TGI equal to 4.59 µM

Lab book: TGI of CC(O)[C@@]1(c2ccccc2)CC2(CCN(C)CC2)O[C@H]1C (some centres not stated) noted as > 100 µM

Briefly, TGI measured for CCCC(=O)NC(Nc1ccc(S(=O)(=O)Nc2ccc(OC)nn2)cc1)(C(F)(F)F)C(F)(F)F : > 100 µM

The reported TGI of the compound O=[N+]([O-])c1cccc(N=Nc2c(O)ccc3ccccc23)c1 was > 100 µM
